Test: qHTS Assay for Lipid Storage Modulators in Drosophila S3 Cells
Conditions: BODIPY lipid droplet fluorescence, 18-24 h, cells fed with added oleic acid; series mostly up to 46.1 µM
Screen size: about 320,000 compounds; about 2,100 (0.66%) were called active. Roughly 53% stayed inconclusive and do not appear here. Calls come from the whole dose curve; as a rule, active = well fitted inhibition curve with a large enough effect in the signal ratio, with a control signal flat (not every such curve was filed as active); inconclusive = small, poorly fitted or top-dose-only effect, or effect the other way, or a change in a side signal; inactive = flat fitted curve, though single readings scatter; the % refers to the signal ratio. This is one part of a sample in which actives are shown more often than they occur.
Bench note: report the call from active, inactive

Reference set (8 entries):
Cn1c(=O)c2c(nc(NCc3ccco3)n2CCc2ccccc2)n(C)c1=O; active
Cn1c(=O)c2c(nc(NCCCO)n2CCc2ccccc2)n(C)c1=O; inactive
Cc1ccccc1Nc1nccc(N(C)C)c1C#N; inactive
CCCNc1nc2c(c(=O)n(C)c(=O)n2C)n1CCCc1ccccc1; inactive
CCOc1ccc2nc(N3C(=O)/C(=C/c4ccc(Cl)cc4)NC3=S)sc2c1; inactive
COc1ccc2nc(N3C(=O)/C(=C/c4ccc(Cl)cc4)NC3=S)sc2c1; inactive
Cn1c(=O)c2c(nc(NCCCO)n2Cc2cccc(Br)c2)n(C)c1=O; inactive
Cn1c(=O)c2c(nc(NCCCO)n2C/C=C/c2ccccc2)n(C)c1=O; active

### Prompt Hi team, can someone confirm the assay call for COc1ccc(S(=O)(=O)c2c(O)c3ccc(C(=O)Nc4ccccc4)cc3[nH]c2=O)cc1 ?
### Response inactive

### Prompt Hi team, can someone confirm the assay call for CCN(CC)CCNc1nc2c(c(=O)n(C)c(=O)n2C)n1C/C=C(/C)Cl ?
### Response inactive

* * *

Test: qHTS Assay for Lipid Storage Modulators in Drosophila S3 Cells;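 for cell number change: cells counted by Cell Tracker Red CMTPX staining in the red channel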
Conditions: BODIPY lipid droplet fluorescence, 18-24 h, cells fed with added oleic acid; measured here: cell count max response
About 2,100 (0.66%) of roughly 320,000 compounds were called active. Not shown: some 53% with an inconclusive outcome. The entries come from a sample that favours actives as a whole.
READOUT_NAME: cell number change (%)
One number for each entry, in %.

O=C(CCN1CCCCCC1)Nc1cccc(F)c1; -13.4

Look up cell number change for the entries below, preserving their order.
1. Cn1c2ccccc2c(=O)c2ccc(C#Cc3ccccn3)cc21
2. CNC(C)C#Cc1ccc2oc3cccc(OC)c3c(=O)c2c1 (stereo not drawn)

### Response
1: -26.5; 2: 16.5

Look up cell number change for the entries below, preserving their order.
1. CCOc1ccc2nc(N3C(=O)/C(=C/c4ccc(Cl)cc4)NC3=S)sc2c1
2. COc1cccc2oc3ccc(C#Cc4ccccn4)cc3c(=O)c12
3. O=C(NCCN1CCCCC1)Nc1cccc(F)c1
4. O=C(CCN1CCCCC1)Nc1ccccc1
5. Cc1ccc(-n2c(SCC(=O)NNC(=S)Nc3ccccc3)nc3ccccc3c2=O)cc1
6. O=C(CCN1CCCCCC1)Nc1ccc(F)cc1
7. Cn1c2ccccc2c(=O)c2cc(C#Cc3ccccn3)ccc21
8. O=C(CCN1CCCCC1)Nc1cccc(Cl)c1

### Response
1. 13.8
2. -5.09
3. -5.7
4. -23.3
5. 9.73
6. -3.75
7. -13.6
8. -28.1

* * *

Test: qHTS Assay for Lipid Storage Modulators in Drosophila S3 Cells; note: potency is the fitted concentration of half-maximal effect
Settings: BODIPY lipid droplet fluorescence, 18-24 h, cells fed with added oleic acid; series mostly up to 46.1 µM
Text: NIH Molecular Libraries Probe Production Centers Network [MLPCN] NIH Chemical Genomics Center [NCGC] […] Triacsin C (Sigma-Aldrich T-4540), an inhibitor of long-chain fatty acyl CoA synthetase that blocks synthesis of triglycerides, was used as a positive control for lipid under-storage. […] Fluorescence was detected by excitation of the fluorophores with a 488-nm laser on an Acumen Explorer (TTP Lab Tech). […] Cells were detected using channel 3 (575-640 nm) with 5-um width and 100-um depth filters. […]
Hit rate of the full screen: of about 320,000 compounds, about 2,100 (0.66%) were called active. Roughly 53% stayed inconclusive and do not appear here. For the sample, actives were picked, then their nearest neighbours and some compounds at random.
READOUT_NAME: Potency

Cc1ccc(C(=O)Nc2cccc(C(=O)NC3CCCC3)c2)cc1; 14.6 µM (active)
CCOC(=O)[C@H]1[C@H]2COc3cc(OC)ccc3[C@@H]2N2C(=O)c3cc(OC)ccc3NC(=O)[C@@]12C; inactive
CCOC(=O)c1c(NC(=O)COC(=O)c2cc(OC)c(OC)cc2[N+](=O)[O-])sc(C)c1CC; inactive
CCOC(=O)[C@H]1[C@H]2COc3ccccc3[C@@H]2N2C(=O)c3cc(OC)ccc3NC(=O)[C@@]12C; inactive

### Prompt Tell us which Potency value is on record for CCOC(=O)c1cccc(NC(=O)c2ccc(NC(=O)C3CCCO3)cc2)c1 (stereo not given)
### Response 14.6 µM (active)

* * *

Experiment: qHTS Assay for Lipid Storage Modulators in Drosophila S3 Cells
Details: BODIPY lipid droplet fluorescence, 18-24 h, cells fed with added oleic acid; series mostly up to 46.1 µM
Screen size: about 320,000 compounds; about 2,100 (0.66%) were called active. Inconclusive results (about 53%) are left out. Calls follow the shape of the dose curve; as a rule, active = well fitted inhibition curve with a large enough effect in the signal ratio, with a control signal flat (not every such curve was filed as active); inconclusive = small, poorly fitted or top-dose-only effect, or effect the other way, or a change in a side signal; inactive = flat fitted curve, though single readings scatter; the % refers to the signal ratio. The sample as a whole holds a higher share of actives than the screen did.
Bench note: report the call from True for active, False for inactive

Reference set (2 entries):
COc1cc(C(=O)N(Cc2ccc(C)o2)C2CCS(=O)(=O)C2)cc(OC)c1OC (stereo unspecified); False
CCOC(=O)C(C)(C)N(Cc1ccccc1C)S(=O)(=O)c1ccc(Cl)c([N+](=O)[O-])c1; False

### Prompt Hi team, can someone confirm the assay call for O=C(Sc1cccc2cccnc12)c1ccccc1Br ?
### Response True

### Prompt Hi team, can someone confirm the assay call for Cc1ccc(OCC(=O)Nc2ccccc2C(=O)N2CCCCC2)cc1 ?
### Response False

### Prompt Hi team, can someone confirm the assay call for COc1ccccc1N(CC(=O)Nc1ccccc1C(=O)N1CCCC1)S(C)(=O)=O ?
### Response True

### Prompt Hi team, can someone confirm the assay call for Cc1cc(=O)[nH]c(SCC2(O)C3CC4CC(C3)CC2C4)n1 (stereo unspecified) ?
### Response True

### Prompt Hi team, can someone confirm the assay call for CN(C)S(=O)(=O)Nc1ccccc1F ?
### Response False

* * *

Assay: qHTS Assay for Lipid Storage Modulators in Drosophila S3 Cells
Conditions: BODIPY lipid droplet fluorescence, 18-24 h, cells fed with added oleic acid; series mostly up to 46.1 µM
About 2,100 (0.66%) of roughly 320,000 compounds were called active. Roughly 53% stayed inconclusive and do not appear here. Calls come from the whole dose curve; as a rule, active = well fitted inhibition curve with a large enough effect in the signal ratio, with a control signal flat (not every such curve was filed as active); inconclusive = small, poorly fitted or top-dose-only effect, or effect the other way, or a change in a side signal; inactive = flat fitted curve, though single readings scatter; the % refers to the signal ratio. The sample holds actives, similar compounds and a random draw of the others, so the mix is not that of the screen.
Bench note: report the call from active, inactive

Reference set (5 entries):
CC(C)C12CN3CC(C(C)C)(CN(C1)C3(C)C)C2=O; inactive
O=C(OCC(=O)N1CCN(c2ccccc2)CC1)c1ccco1; active
CCOc1c(CNc2nnnn2C)cccc1OC; inactive
COc1ccc(CNc2nc3ccccc3n2C)c(OC)c1; inactive
COc1ccc(N2CCN(C(=O)COC(=O)c3ccco3)CC2)cc1; inactive

### Prompt Hi team, can someone confirm the assay call for COc1ccc(/C=N/NC(=O)C(O)(c2ccccc2)c2ccccc2)cc1OC ?
### Response inactive

### Prompt Hi team, can someone confirm the assay call for Cc1ccc(N(Cc2ccccc2)C(=O)c2cccc(S(=O)(=O)N3CCN(C)CC3)c2)cc1 ?
### Response inactive

* * *

Test: qHTS Assay for Lipid Storage Modulators in Drosophila S3 Cells;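 for cell number change: cells counted by Cell Tracker Red CMTPX staining in the red channel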
Conditions: BODIPY lipid droplet fluorescence, 18-24 h, cells fed with added oleic acid; measured here: cell count max response
Among all 320,000 compounds or so, about 2,100 (0.66%) were called active. Another 53% or so got no clear call; they are omitted. Many of the other results were omitted from the sample, so actives are more common in it than they were.
For each of the compounds below, state its cell number change.
Put down the number, then write its unit next to it.

Some compounds with recorded cell number change:
CCN(CC)c1ccc(C(=O)OCC(=O)Nc2cc3oc4ccccc4c3cc2OC)cc1; -0.812%
Cc1cccc(C)c1NC(=O)CN(C)C(=O)c1cccc(S(=O)(=O)N2CCN(C)CC2)c1; 10.4%
COc1ccccc1CNC(=O)C1CCCN(S(=O)(=O)c2cnc[nH]2)C1 (stereo not drawn); 23%
CC(C(=O)NC1CCCC1)N(C(=O)Cn1nnc(-c2ccc(F)cc2)n1)c1ccccc1F (stereo not drawn); -1.32%

Look up cell number change for the entries below, preserving their order.
1. COc1ccc(NC(=O)C2CCCN(S(=O)(=O)c3ccc4c(c3)oc(=O)n4C)C2)c(OC)c1 (stereo not drawn)
2. COc1cccc(NC(=O)Nc2ccc3c(c2)nc(C)n3C)c1
3. Cc1ccc(C(=O)O)cc1S(=O)(=O)N1CCC(C(=O)O)CC1
4. O=C1C(Cc2ccc(O)cc2)NC(=S)N1C1CCCCC1 (stereo not drawn)
5. O=C(NC1(C(=O)NC2CCCCC2)CCCCC1)c1ccc2c(c1)OCO2

### Response
["13.3%", "-12.3%", "-0.135%", "9.32%", "4.66%"]
